Test: Octanol-water partition coefficient, logKOW of the compound
Format: physicochemical
Conditions: read-out: log KOW
Param label: returns Condition met when logP < 2, returns Condition not met otherwise, including exact equality.

Record excerpt, results attached:
{"columns": ["MOLECULE", "DISCRETE LABEL"],
 "data": [
  ["O=C(CC1(O)C(=O)Nc2ccc(O)cc21)c1ccc(I)cc1 (configuration not stated)", "Condition not met"],
  ["O=C(CC1(O)C(=O)Nc2ccc(O)cc21)c1ccc(C(F)(F)F)cc1 (configuration not stated)", "Condition not met"],
  ["O=C(CC1(O)C(=O)Nc2ccc(O)cc21)c1ccc([N+](=O)[O-])cc1 (configuration not stated)", "Condition met"],
  ["Cc1ccc(C(=O)CC2(O)C(=O)Nc3ccc(O)cc32)cc1 (configuration not stated)", "Condition not met"],
  ["N#Cc1ccc(C(=O)CC2(O)C(=O)Nc3ccc(O)cc32)cc1 (configuration not stated)", "Condition met"]
]}

Lookup: Input COc1ccc(C(=O)CC2(O)C(=O)Nc3ccc(O)cc32)cc1 (configuration not stated) ; condition: logP strictly below 2. Does it hold?
Found: Condition met

Lookup: logP under 2? Item: CC(=O)CC1(O)C(=O)Nc2ccc(O)cc21 (configuration not stated)
Found: Condition met

Lookup: # TODO verify logP < 2 strictly for this molecule: O=C(CC1(O)C(=O)Nc2ccc(O)cc21)c1ccc(F)cc1 (configuration not stated)
Found: Condition met

Lookup: Quick check: does `O=C1Cc2cc(O)ccc2N1` have logP under 2?
Found: Condition met

Lookup: API: query returns whether the molecule falls strictly under 2 in logP. Query: O=C(CC1(O)C(=O)Nc2ccc(O)cc21)c1ccccc1 (configuration not stated)
Found: Condition met

Lookup: Hello, I'm reviewing records and need to know if logP of O=C(CC1(O)C(=O)Nc2ccc(O)cc21)c1ccc(Br)cc1 (configuration not stated) is below 2. Could you check?
Found: Condition not met

Lookup: Take the molecule O=C(CC1(O)C(=O)Nc2ccc(O)cc21)c1ccc(Cl)cc1 (configuration not stated) and say whether its logP is less than 2.
Found: Condition not met

---

System: HL-60
Test: Antioxidant activity in human HL60 cells assessed as reduction of H2O2-induced intracellular oxidative stress at 10 uM after 1 hr using DCFH-DA by FACS analysis
Format: functional, cell-based
Calls of active or inactive are those of the source. No cut-off for these calls is given here.
Respond only with the outcome that fits, drawn from active, inactive

{"columns": ["COMPOUND", "DISCRETE LABEL"],
 "data": [
  ["O=C1Cc2cc(O)ccc2N1", "active"],
  ["COc1ccc(C(=O)CC2(O)C(=O)Nc3ccc(O)cc32)cc1 (stereo not drawn)", "active"],
  ["O=C(CC1(O)C(=O)Nc2ccc(O)cc21)c1ccc(I)cc1 (stereo not drawn)", "active"],
  ["O=C(CC1(O)C(=O)Nc2ccc(O)cc21)c1ccc([N+](=O)[O-])cc1 (stereo not drawn)", "active"],
  ["O=C(CC1(O)C(=O)Nc2ccc(O)cc21)c1ccccc1 (stereo not drawn)", "active"]
]}

Lookup: Which outcome was assigned to O=C(CC1(O)C(=O)Nc2ccc(O)cc21)c1ccc(Br)cc1 (stereo not drawn) in this test?
Found: active

Lookup: Call for entry Oc1nc(O)c2nc(O)[nH]c2n1 [URIC ACID] :
Found: inactive

Lookup: Hello, I am checking results. What call was entered for O=C(CC1(O)C(=O)Nc2ccc(O)cc21)c1ccc(C(F)(F)F)cc1 (stereo not drawn) ?
Found: active

Lookup: Can you look up the reported call for Cc1ccc(C(=O)CC2(O)C(=O)Nc3ccc(O)cc32)cc1 (stereo not drawn) for me?
Found: active

Lookup: Would you mind telling me which call this test gave O=C(CC1(O)C(=O)Nc2ccc(O)cc21)c1ccc(Cl)cc1 (stereo not drawn) ?
Found: active

Lookup: Call for entry N#Cc1ccc(C(=O)CC2(O)C(=O)Nc3ccc(O)cc32)cc1 (stereo not drawn) :
Found: active

Lookup: So what was the verdict on CC(=O)CC1(O)C(=O)Nc2ccc(O)cc21 (stereo not drawn) in this test?
Found: inactive

Lookup: I would be grateful if you could indicate the recorded call for O=C(CC1(O)C(=O)Nc2ccc(O)cc21)c1ccc(F)cc1 (stereo not drawn) .
Found: active

---

System: HL-60
Experiment: Cytotoxicity against human HL60 cells assessed as reduction of cell viability at 100 uM after 24 hrs by trypan blue dye exclusion test
Assay type: cell-based
Details: hl-60, 24 h
ENDPOINT LABEL: Activity

Study these solved cases before continuing.
{"columns": ["MOLECULE", "Activity"],
 "data": [
  ["O=C(CC1(O)C(=O)Nc2ccc(O)cc21)c1ccc(Br)cc1 (centres undefined)", "Toxic"],
  ["O=C(CC1(O)C(=O)Nc2ccc(O)cc21)c1ccccc1 (centres undefined)", "Non-toxic"],
  ["COc1ccc(C(=O)CC2(O)C(=O)Nc3ccc(O)cc32)cc1 (centres undefined)", "Non-toxic"],
  ["N#Cc1ccc(C(=O)CC2(O)C(=O)Nc3ccc(O)cc32)cc1 (centres undefined)", "Toxic"],
  ["O=C1Cc2cc(O)ccc2N1", "Non-toxic"]
]}

Each molecule below has a reported value. Please supply its Activity.
1. O=C(CC1(O)C(=O)Nc2ccc(O)cc21)c1ccc(F)cc1 (centres undefined)
2. Cc1ccc(C(=O)CC2(O)C(=O)Nc3ccc(O)cc32)cc1 (centres undefined)
3. CC(=O)CC1(O)C(=O)Nc2ccc(O)cc21 (centres undefined)
4. O=C(CC1(O)C(=O)Nc2ccc(O)cc21)c1ccc(Cl)cc1 (centres undefined)

Found:
1. Toxic
2. Non-toxic
3. Non-toxic
4. Toxic

---

System: Liver microsome
Experiment: Antioxidant activity against tert-butylhydroperoxide-induced lipid peroxidation in rat liver microsomes after 20 mins by TBARS method
Format: functional
ENDPOINT LABEL: pIC50
Numbers only, as −log10 of the molar value.

Look over these answered cases.
{"columns": ["MOLECULE", "pIC50"],
 "data": [
  ["O=C(CC1(O)C(=O)Nc2ccc(O)cc21)c1ccccc1 (stereo not drawn)", 3.62],
  ["O=C1Cc2cc(O)ccc2N1", 3.52],
  ["O=C(CC1(O)C(=O)Nc2ccc(O)cc21)c1ccc(C(F)(F)F)cc1 (stereo not drawn)", 4.10],
  ["O=C(CC1(O)C(=O)Nc2ccc(O)cc21)c1ccc(Cl)cc1 (stereo not drawn)", 3.92],
  ["Cc1ccc(C(=O)CC2(O)C(=O)Nc3ccc(O)cc32)cc1 (stereo not drawn)", 3.80],
  ["O=C(CC1(O)C(=O)Nc2ccc(O)cc21)c1ccc(I)cc1 (stereo not drawn)", 4.26],
  ["O=C(CC1(O)C(=O)Nc2ccc(O)cc21)c1ccc([N+](=O)[O-])cc1 (stereo not drawn)", 4.40],
  ["O=C(CC1(O)C(=O)Nc2ccc(O)cc21)c1ccc(F)cc1 (stereo not drawn)", 4.02]
]}

Batch request: pIC50 per item, same order as input.
1. O=C(CC1(O)C(=O)Nc2ccc(O)cc21)c1ccc(Br)cc1 (stereo not drawn)
2. N#Cc1ccc(C(=O)CC2(O)C(=O)Nc3ccc(O)cc32)cc1 (stereo not drawn)
3. COc1ccc(C(=O)CC2(O)C(=O)Nc3ccc(O)cc32)cc1 (stereo not drawn)

Found:
1: 4.12; 2: 3.82; 3: 3.65
